UniProt:P35968 pIC50 data
Sequence (P35968 whole entry): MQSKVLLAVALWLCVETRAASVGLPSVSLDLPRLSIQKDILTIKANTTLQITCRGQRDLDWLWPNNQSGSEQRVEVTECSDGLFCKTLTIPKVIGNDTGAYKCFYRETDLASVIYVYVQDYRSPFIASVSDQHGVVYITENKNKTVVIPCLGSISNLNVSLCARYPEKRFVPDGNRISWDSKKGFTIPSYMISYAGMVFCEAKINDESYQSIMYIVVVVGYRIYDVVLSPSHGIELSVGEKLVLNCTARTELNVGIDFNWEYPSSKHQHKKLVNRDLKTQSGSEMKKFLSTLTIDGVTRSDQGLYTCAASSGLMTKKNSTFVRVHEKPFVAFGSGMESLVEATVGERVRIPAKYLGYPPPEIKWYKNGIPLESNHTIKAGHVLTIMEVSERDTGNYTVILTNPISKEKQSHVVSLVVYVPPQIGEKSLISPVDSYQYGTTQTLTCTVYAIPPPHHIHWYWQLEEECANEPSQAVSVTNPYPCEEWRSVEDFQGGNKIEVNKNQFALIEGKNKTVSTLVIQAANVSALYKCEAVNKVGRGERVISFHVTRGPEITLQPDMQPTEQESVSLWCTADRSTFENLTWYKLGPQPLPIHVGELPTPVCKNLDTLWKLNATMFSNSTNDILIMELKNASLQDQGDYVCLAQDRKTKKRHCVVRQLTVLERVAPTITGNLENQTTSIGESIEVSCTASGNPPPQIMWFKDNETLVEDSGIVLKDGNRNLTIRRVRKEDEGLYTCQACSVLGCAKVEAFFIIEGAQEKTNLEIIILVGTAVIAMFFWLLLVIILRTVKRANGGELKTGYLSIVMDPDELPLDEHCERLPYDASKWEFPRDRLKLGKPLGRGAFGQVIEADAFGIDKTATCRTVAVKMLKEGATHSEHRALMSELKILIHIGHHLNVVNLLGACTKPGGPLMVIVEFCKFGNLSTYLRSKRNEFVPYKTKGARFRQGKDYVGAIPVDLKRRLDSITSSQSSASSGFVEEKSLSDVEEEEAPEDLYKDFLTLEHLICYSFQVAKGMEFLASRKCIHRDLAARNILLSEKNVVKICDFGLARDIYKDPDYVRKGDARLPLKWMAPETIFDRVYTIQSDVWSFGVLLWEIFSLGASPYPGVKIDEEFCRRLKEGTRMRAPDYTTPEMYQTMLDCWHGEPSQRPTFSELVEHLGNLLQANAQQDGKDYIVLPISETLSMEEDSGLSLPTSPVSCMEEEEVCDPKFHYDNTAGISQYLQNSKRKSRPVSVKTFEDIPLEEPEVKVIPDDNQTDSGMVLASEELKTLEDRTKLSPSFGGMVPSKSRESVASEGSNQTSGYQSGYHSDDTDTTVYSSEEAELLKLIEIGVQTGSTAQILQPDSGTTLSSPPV
// scale note: pIC50 = -log10(conc_M); give the bare number

[ask] Value lookup for pIC50; key = CN1CCN(c2ccc(C(=O)Nc3cc(-c4ccc(CNC(=O)OCc5cccnc5)cc4)n[nH]3)cc2)CC1
[reply] 6.66

[ask] Value lookup for pIC50; key = CN1CCN(c2ccc(C(=O)Nc3cc(-c4ccc(NC(=O)Oc5ccccc5)cc4)n[nH]3)cc2)CC1
[reply] 6.74

[ask] Value lookup for pIC50; key = CN1CCN(c2ccc(C(=O)Nc3cc(-c4ccc(NC(=O)OCc5ccccc5)cc4)n[nH]3)cc2)CC1
[reply] 7.32

[ask] Value lookup for pIC50; key = CN1CCN(Cc2ccc(C(=O)Nc3cc(-c4ccc(CNC(=O)OCc5ccccc5)cc4)n[nH]3)cc2)CC1
[reply] 6.77

[ask] Value lookup for pIC50; key = Cc1cc(COC(=O)NCc2ccc(-c3cc(NC(=O)c4ccc(N5CCN(C)CC5)cc4)[nH]n3)cc2)no1
[reply] 6.43

[ask] Value lookup for pIC50; key = Cc1nc(Nc2cc(-c3ccc(CNC(=O)OCc4ccccc4)cc3)n[nH]2)cc(N2CCN(C)CC2)n1
[reply] 6.51
